assay: Rheological analysis of the gels (gel hardness, complex modulus G*); format: physicochemical; conditions: organogelator 5% (w/w) in safflower oil; 25±0.1° C., 0.1 to 10 Hz
reported metric: G* (complex modulus, gel hardness)

>>> print(df.to_string())
                                   compound                     reported_metric  result
0  CCCCCCCCCCCCCCCCCCCCCC(=O)N[C@@H](Cc1ccccc1)C(=O)OC [B-Phe-OCH3]  G* (complex modulus, gel hardness)   6 kPa

Please go through the list and note G* (complex modulus, gel hardness) for each compound.
1. CCCCCCCCCCCCCCCCCC(=O)N[C@@H](Cc1ccccc1)C(=O)OC [S-Phe-OCH3, N-stearoyl L-phenylalanine methyl ester]
2. CCCCCCCCCCCCCCCCCC(=O)N[C@@H](Cc1c[nH]c2ccccc12)C(=O)O [S-Trp-OH, N-stearoyl L-tryptophan]
3. CCCCCCCCCCCCCCCCCC(=O)N[C@@H](Cc1c[nH]c2ccccc12)C(=O)OC [S-Trp-OCH3, N-stearoyl L-tryptophan methyl ester]
4. CCCCCCCCCCCCCCCCCC(=O)N[C@@H](Cc1ccc(O)cc1)C(=O)O [S-Tyr-OH, N-stearoyl L-tyrosine]
5. CCCCCCCCCCCCCCCCCC(=O)NC(C)C(=O)OC (centres unmarked) [S-Ala-OCH3]
6. CCCCCCCCCCCCCCCCCCCCCC(=O)N[C@@H](Cc1ccc(O)cc1)C(=O)OC [B-Tyr-OCH3, N-Behenoyl L-tyrosine methyl ester]

Result:
1. 6.1 kPa
2. <0.1 kPa
3. <0.1 kPa
4. 5 kPa
5. 5 kPa
6. 37.6 kPa

For this compound ( CCCCCCCCCCCCCCCCCC(=O)N[C@@H](Cc1ccc(O)cc1)C(=O)OC [S-Tyr-OCH3, N-Stearoyl L-tyrosine methyl ester] ), measured G* (complex modulus, gel hardness) is 15.2 kPa
